Taken from the supplement of paper PMC9112550.

# Tested on: Escherichia coli TOP10
# protocolDetails: shrunken log2 fold change of peptide-encoding DNA abundance (4.5 h post-induction vs induction); higher = less antimicrobial activity (less host growth inhibition)
# particulars: time post-induction: 4.5 h; library: site-saturation at positions 5, 18, 19, 20
assayEndpoint: shrunken log2 fold change
Reply with the value as a number alone.

[
  {
    "biosequence": "RRIRLRPPRLPRPRPRPRACPRP",
    "shrunken log2 fold change": 0.223
  },
  {
    "biosequence": "RRIRHRPPRLPRPRPRPRLFPRP",
    "shrunken log2 fold change": 0.164
  },
  {
    "biosequence": "RRIRERPPRLPRPRPRPPIWPRP",
    "shrunken log2 fold change": -0.0729
  },
  {
    "biosequence": "RRIRTRPPRLPRPRPRPVMMPRP",
    "shrunken log2 fold change": -0.199
  },
  {
    "biosequence": "RRIRKRPPRLPRPRPRPWSEPRP",
    "shrunken log2 fold change": 0.00538
  }
]

Exam item: State the recorded shrunken log2 fold change for this entry: `RRIRKRPPRLPRPRPRPDIIPRP`
Marked response: 0.194

Exam item: State the recorded shrunken log2 fold change for this entry: `RRIRNRPPRLPRPRPRPRVFPRP`
Marked response: -0.036

Exam item: State the recorded shrunken log2 fold change for this entry: `RRIRHRPPRLPRPRPRPMIAPRP`
Marked response: -0.0185

----------
# Tested on: Escherichia coli TOP10
# protocolDetails: shrunken log2 fold change of peptide-encoding DNA abundance (4.5 h post-induction vs induction); higher = less antimicrobial activity (less host growth inhibition)
# particulars: time post-induction: 4.5 h; library: site-saturation at positions 5, 18, 19, 20
shrunken log2 fold change reference
Reply with the value as a number alone.

Some entries whose results are on file:
[
  {
    "biosequence": "RRIRYRPPRLPRPRPRPGAKPRP",
    "shrunken log2 fold change": 0.379
  },
  {
    "biosequence": "RRIRRRPPRLPRPRPRPHEWPRP",
    "shrunken log2 fold change": -0.00636
  },
  {
    "biosequence": "RRIRWRPPRLPRPRPRPHIDPRP",
    "shrunken log2 fold change": -0.466
  },
  {
    "biosequence": "RRIRRRPPRLPRPRPRPYHPPRP",
    "shrunken log2 fold change": -0.34
  },
  {
    "biosequence": "RRIRTRPPRLPRPRPRPFHWPRP",
    "shrunken log2 fold change": 0.036
  }
]

Exam item: State the recorded shrunken log2 fold change for this entry: `RRIRGRPPRLPRPRPRPLTAPRP`
Marked response: 0.998

Exam item: State the recorded shrunken log2 fold change for this entry: `RRIRTRPPRLPRPRPRPWWWPRP`
Marked response: -0.0964

Exam item: State the recorded shrunken log2 fold change for this entry: `RRIRDRPPRLPRPRPRPWYVPRP`
Marked response: -0.726

Exam item: State the recorded shrunken log2 fold change for this entry: `RRIRSRPPRLPRPRPRPVLPPRP`
Marked response: -0.167

----------
# Test system: Escherichia coli TOP10
# protocolDetails: shrunken log2 fold change of peptide-encoding DNA abundance (4.5 h post-induction vs induction); higher = less antimicrobial activity (less host growth inhibition)
# particulars: time post-induction: 4.5 h; library: site-saturation at positions 5, 18, 19, 20
shrunken log2 fold change reference
Reply with the value as a number alone.

Exam item: State the recorded shrunken log2 fold change for this entry: `RRIRFRPPRLPRPRPRPHWSPRP`
Marked response: -0.54

Exam item: State the recorded shrunken log2 fold change for this entry: `RRIRNRPPRLPRPRPRPCMRPRP`
Marked response: 0.0891

----------
shrunken log2 fold change reference
# Tested on: Escherichia coli TOP10
# protocolDetails: shrunken log2 fold change of peptide-encoding DNA abundance (4.5 h post-induction vs induction); higher = less antimicrobial activity (less host growth inhibition)
# particulars: time post-induction: 4.5 h; library: site-saturation at positions 5, 18, 19, 20

Some entries whose results are on file:
[
  {
    "biosequence": "RRIRDRPPRLPRPRPRPSGHPRP",
    "shrunken log2 fold change": 1.17
  },
  {
    "biosequence": "RRIRFRPPRLPRPRPRPAKCPRP",
    "shrunken log2 fold change": -0.00691
  },
  {
    "biosequence": "RRIRARPPRLPRPRPRPFWIPRP",
    "shrunken log2 fold change": -0.0619
  },
  {
    "biosequence": "RRIRTRPPRLPRPRPRPHFKPRP",
    "shrunken log2 fold change": -0.307
  },
  {
    "biosequence": "RRIRRRPPRLPRPRPRPSCVPRP",
    "shrunken log2 fold change": 0.259
  },
  {
    "biosequence": "RRIRIRPPRLPRPRPRPMIPPRP",
    "shrunken log2 fold change": 1.87
  },
  {
    "biosequence": "RRIRVRPPRLPRPRPRPHRKPRP",
    "shrunken log2 fold change": 0.164
  },
  {
    "biosequence": "RRIRNRPPRLPRPRPRPADHPRP",
    "shrunken log2 fold change": -0.0958
  }
]

Exam item: State the recorded shrunken log2 fold change for this entry: `RRIRSRPPRLPRPRPRPLHYPRP`
Marked response: -0.908

Exam item: State the recorded shrunken log2 fold change for this entry: `RRIRARPPRLPRPRPRPTMPPRP`
Marked response: 0.364

Exam item: State the recorded shrunken log2 fold change for this entry: `RRIRHRPPRLPRPRPRPRQQPRP`
Marked response: 0.283

Exam item: State the recorded shrunken log2 fold change for this entry: `RRIRNRPPRLPRPRPRPWFRPRP`
Marked response: 0.0475

Exam item: State the recorded shrunken log2 fold change for this entry: `RRIRERPPRLPRPRPRPDCPPRP`
Marked response: -0.559

Exam item: State the recorded shrunken log2 fold change for this entry: `RRIRTRPPRLPRPRPRPWTPPRP`
Marked response: -0.00155

----------
shrunken log2 fold change reference
# Tested on: Escherichia coli TOP10
# protocolDetails: shrunken log2 fold change of peptide-encoding DNA abundance (4.5 h post-induction vs induction); higher = less antimicrobial activity (less host growth inhibition)
# particulars: time post-induction: 4.5 h; library: site-saturation at positions 5, 18, 19, 20
Reply with the value as a number alone.

Some entries whose results are on file:
[
  {
    "biosequence": "RRIRHRPPRLPRPRPRPQGRPRP",
    "targetOrTestSystem": "Escherichia coli TOP10",
    "assayEndpoint": "shrunken log2 fold change",
    "measurement": 0.027
  },
  {
    "biosequence": "RRIRMRPPRLPRPRPRPQASPRP",
    "targetOrTestSystem": "Escherichia coli TOP10",
    "assayEndpoint": "shrunken log2 fold change",
    "measurement": 0.309
  },
  {
    "biosequence": "RRIRMRPPRLPRPRPRPDVSPRP",
    "targetOrTestSystem": "Escherichia coli TOP10",
    "assayEndpoint": "shrunken log2 fold change",
    "measurement": 2.14
  },
  {
    "biosequence": "RRIRARPPRLPRPRPRPQAMPRP",
    "targetOrTestSystem": "Escherichia coli TOP10",
    "assayEndpoint": "shrunken log2 fold change",
    "measurement": 0.132
  },
  {
    "biosequence": "RRIRRRPPRLPRPRPRPYLPPRP",
    "targetOrTestSystem": "Escherichia coli TOP10",
    "assayEndpoint": "shrunken log2 fold change",
    "measurement": -0.456
  }
]

Exam item: State the recorded shrunken log2 fold change for this entry: `RRIRCRPPRLPRPRPRPYKNPRP`
Marked response: -0.984

Exam item: State the recorded shrunken log2 fold change for this entry: `RRIRERPPRLPRPRPRPTCSPRP`
Marked response: -0.397

Exam item: State the recorded shrunken log2 fold change for this entry: `RRIRERPPRLPRPRPRPIARPRP`
Marked response: -0.0237

----------
# System: Escherichia coli TOP10;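 also: peptides expressed intracellularly from a pBAD plasmid library in pooled LB shake-flask culture, induced with 0.3% L-arabinose, DNA abundance read by NGS, three biological replicates, DESeq2 with apeglm shrinkage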
# protocolDetails: shrunken log2 fold change of peptide-encoding DNA abundance (4.5 h post-induction vs induction); higher = less antimicrobial activity (less host growth inhibition)
# particulars: time post-induction: 4.5 h; library: site-saturation at positions 5, 18, 19, 20
assayEndpoint: shrunken log2 fold change
Reply with the value as a number alone.

Some entries whose results are on file:
[
  {
    "biosequence": "RRIRIRPPRLPRPRPRPIQMPRP",
    "assayEndpoint": "shrunken log2 fold change",
    "measurement": -0.203
  },
  {
    "biosequence": "RRIRWRPPRLPRPRPRPGNKPRP",
    "assayEndpoint": "shrunken log2 fold change",
    "measurement": -0.0586
  },
  {
    "biosequence": "RRIRPRPPRLPRPRPRPIQYPRP",
    "assayEndpoint": "shrunken log2 fold change",
    "measurement": -0.642
  },
  {
    "biosequence": "RRIRPRPPRLPRPRPRPHHSPRP",
    "assayEndpoint": "shrunken log2 fold change",
    "measurement": -0.454
  },
  {
    "biosequence": "RRIRLRPPRLPRPRPRPSWGPRP",
    "assayEndpoint": "shrunken log2 fold change",
    "measurement": 0.00407
  }
]

Exam item: State the recorded shrunken log2 fold change for this entry: `RRIRWRPPRLPRPRPRPCRDPRP`
Marked response: -0.0737

Exam item: State the recorded shrunken log2 fold change for this entry: `RRIRGRPPRLPRPRPRPRKKPRP`
Marked response: 0.774

Exam item: State the recorded shrunken log2 fold change for this entry: `RRIRRRPPRLPRPRPRPQSCPRP`
Marked response: 0.107
